Attribution: PubChem BioAssay (Tox21)

- Protocol text: qHTS assay for identifying genotoxic compounds that show differential cytotoxicity against isogenic chicken DT40 cell lines with known DNA damage response pathways - Rad54/Ku70 mutant cell line (AID 743015); also: nearly all actives have a fitted effect of over 60% in size
- Condition summary: DT40 Rad54/Ku70 mutant viability, CellTiter-Glo, 40 h; series mostly up to 66.8 µM
- Description: National Center for Advancing Translational Sciences [NCATS] NIH Chemical Genomics Center [NCGC] U.S. Environmental Protection Agency [EPA] National Institutes of Environmental Health Sciences [NIEHS] National Toxicology Program [NTP] U.S. Food and Drug Administration [FDA] DNA repair pathways play a critical role in cellular homeostasis by repairing DNA damage induced by endogenous processes and xenobiotics. […]
Inconclusive results are not listed. The source made the active and inactive calls. Calls follow the shape of the dose curve; as a rule, active = well fitted cell-killing curve with a large enough effect in the repeat runs; inconclusive = weak or mixed curves; inactive = no such curve, though single readings can be large or run the other way.
I would appreciate it if you answered using one of these outcomes: active, inactive

Problem: Kindly provide the recorded test outcome for the following compound: `O=S1OCCO1`
Result: inactive

Problem: Kindly provide the recorded test outcome for the following compound: `O=C(O)c1ccc(CO)o1`
Result: inactive

Problem: Kindly provide the recorded test outcome for the following compound: `CCCCCCCCCCOS(=O)(=O)O`
Result: inactive

Problem: Kindly provide the recorded test outcome for the following compound: `CO[Si](C)(OC)OC`
Result: inactive

Problem: Kindly provide the recorded test outcome for the following compound: `CN(C)CCOC1=Cc2ccccc2Sc2ccc(Cl)cc21`
Result: active

Problem: Kindly provide the recorded test outcome for the following compound: `Cc1cc(S(=O)(=O)O)ccc1N=Nc1c(O)ccc2ccccc12`
Result: inactive

Problem: Kindly provide the recorded test outcome for the following compound: CC(CCO)CCc1ccccc1 (configuration not stated)
Result: inactive

Problem: Kindly provide the recorded test outcome for the following compound: CC(=O)CC(c1ccc([N+](=O)[O-])cc1)c1c(O)c2ccccc2oc1=O (configuration not stated)
Result: inactive

Problem: Kindly provide the recorded test outcome for the following compound: `CC(C)=CC=O`
Result: inactive

Problem: Kindly provide the recorded test outcome for the following compound: `CCOC(=O)CC(=O)C(=O)OCC`
Result: inactive

Problem: Kindly provide the recorded test outcome for the following compound: CCC(C)(C)C1CCC(O)CC1 (configuration not stated)
Result: inactive

Problem: Kindly provide the recorded test outcome for the following compound: `NC(=O)Nc1ccc(Cl)c(Cl)c1`
Result: active

Problem: Kindly provide the recorded test outcome for the following compound: O=C(O)C(Cc1cc(I)c(O)c(I)c1)c1ccccc1 (configuration not stated)
Result: inactive

Problem: Kindly provide the recorded test outcome for the following compound: `CCCCCCCCCCCC[N+](C)(C)CC(=O)[O-]`
Result: active

Problem: Kindly provide the recorded test outcome for the following compound: COCCOC(=O)C1=C(C)NC(C)=C(C(=O)OC/C=C/c2ccccc2)C1c1cccc([N+](=O)[O-])c1 (configuration not stated)
Result: active

Problem: Kindly provide the recorded test outcome for the following compound: `C[C@@H]1C[C@H]2[C@@H]3CCC4=CC(=O)C=C[C@]4(C)[C@@]3(F)[C@@H](O)C[C@]2(C)[C@H]1C(=O)CO`
Result: active

Problem: Kindly provide the recorded test outcome for the following compound: `O=[N+]([O-])c1cccc(S(=O)(=O)NCCNS(=O)(=O)c2cccc([N+](=O)[O-])c2)c1`
Result: inactive

Problem: Kindly provide the recorded test outcome for the following compound: `CCc1cccc(N(C)C(N)=Nc2cccc3ccccc23)c1`
Result: active

Problem: Kindly provide the recorded test outcome for the following compound: `Cc1nc2ccccc2s1`
Result: inactive

Problem: Kindly provide the recorded test outcome for the following compound: `CN1CCN(c2c(F)cc3c(=O)c(C(=O)O)cn4c3c2OCN4C)CC1`
Result: inactive

Problem: Kindly provide the recorded test outcome for the following compound: `Cc1ccnc2ccccc12`
Result: inactive

Problem: Kindly provide the recorded test outcome for the following compound: CCC1(C)CC(=O)NC1=O (configuration not stated)
Result: inactive

Problem: Kindly provide the recorded test outcome for the following compound: `C=CC(=C)CCCC(C)(C)OC(C)=O`
Result: inactive

Problem: Kindly provide the recorded test outcome for the following compound: CC1CC(=O)NN=C1c1ccc(NCC(C)(C)NCC(O)COc2cc(Cl)ccc2C#N)cc1 (configuration not stated)
Result: active

Problem: Kindly provide the recorded test outcome for the following compound: `CCOC(=O)OCC`
Result: inactive

Problem: Kindly provide the recorded test outcome for the following compound: `CCCCCCCCCCCC(=O)[O][Sn]([CH2]CCC)([CH2]CCC)[O]C(=O)CCCCCCCCCCC`
Result: inactive

Problem: Kindly provide the recorded test outcome for the following compound: `O=C(O)Cc1ccc(-c2ccccc2)cc1`
Result: inactive
